Exercise: for every item that follows, state its recorded Kd.
Target: α2R (Ovis aries)
Sequence (A0ACI6PY47 1-467): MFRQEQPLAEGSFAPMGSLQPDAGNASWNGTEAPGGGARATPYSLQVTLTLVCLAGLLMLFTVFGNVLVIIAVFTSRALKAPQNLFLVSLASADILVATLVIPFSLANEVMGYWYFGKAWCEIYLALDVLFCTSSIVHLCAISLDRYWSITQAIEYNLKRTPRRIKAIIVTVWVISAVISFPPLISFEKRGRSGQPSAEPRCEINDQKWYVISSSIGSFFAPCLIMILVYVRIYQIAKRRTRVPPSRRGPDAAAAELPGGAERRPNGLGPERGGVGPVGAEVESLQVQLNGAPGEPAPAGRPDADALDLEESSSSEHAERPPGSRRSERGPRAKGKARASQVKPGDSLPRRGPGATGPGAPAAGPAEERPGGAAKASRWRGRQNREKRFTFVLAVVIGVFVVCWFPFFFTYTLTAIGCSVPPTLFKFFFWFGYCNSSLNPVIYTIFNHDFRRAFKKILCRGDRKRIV

>>> obs_value("Cc1cccc(C(=O)NCN2CCN(c3ccccc3C#N)CC2)c1")
"80 nM"

// Cc1cccc(NC(=O)CN2CCC(c3ccccn3)CC2)c1.Cl.Cl [A-412997, A-412997 dihydrochloride] : Kd value = 1400 nM

The measured values listed here are drawn from paper PMC9885860.
